Target System: human κ opioid receptor (Homo sapiens, UniProt P41145)
Sequence (P41145 whole entry): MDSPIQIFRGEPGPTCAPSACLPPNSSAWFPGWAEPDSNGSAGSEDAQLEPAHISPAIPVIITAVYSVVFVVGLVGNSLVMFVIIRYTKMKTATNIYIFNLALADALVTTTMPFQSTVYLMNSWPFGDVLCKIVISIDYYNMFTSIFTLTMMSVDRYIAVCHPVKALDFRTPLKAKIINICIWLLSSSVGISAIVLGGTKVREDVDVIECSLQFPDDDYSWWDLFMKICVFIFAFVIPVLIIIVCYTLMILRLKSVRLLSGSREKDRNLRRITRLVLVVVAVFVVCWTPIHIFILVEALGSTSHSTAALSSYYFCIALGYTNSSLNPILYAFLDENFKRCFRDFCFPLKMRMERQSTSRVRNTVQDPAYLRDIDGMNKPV
Experiment: [35S]GTPγS binding, stimulation and inhibition of agonist-stimulated binding
Format: biochemical
Assay Conditions: Kappa Opioid Receptor
Endpoint Label: Functional description

INSERT INTO measurements (molecule, measured) VALUES
  ('CC1C2Cc3ccc(C(=O)NCCc4ccc(-c5ccccc5)cc4)cc3C1(C)CCN2CC1CC1 (racemic) [Compound 1, reference compound]', 'agonist'),
  ('C[C@H]1C2Cc3ccc(C(=O)NCCc4ccc(-c5ccccc5)cn4)cc3[C@@]1(C)CCN2CC1CC1', 'agonist'),
  ('C[C@H]1C2Cc3ccc(C(N)=O)cc3[C@@]1(C)CCN2CC1CC1 [Compound 2, 8-carboxamidocyclazocine, reference compound]', 'agonist');
